This collection of values is drawn from the OligoGym collection.

// reported target mRNA knockdown for each item listed
- reported.conditions: siRNA; also: test system not given here
HELM strings list units from the 5' end as sugar, base in round brackets, then linkage (d deoxyribose, r ribose, m 2'-O-methyl, p phosphodiester). Strings are as the collection lists them, not checked against the first reports. ss, as = sense and antisense strand; [una] = unlocked nucleic acid; [fl2r] = 2'-fluoro
quantity.measured: target mRNA knockdown

substance	quantity.measured	result
RNA1{r(A)p.r(U)p.r(C)p.r(G)p.r(A)p.r(C)p.r(C)p.[fl2r](U)p.r(G)p.r(A)p.r(A)p.r(G)p.r(G)p.r(A)p.r(G)p.[fl2r](U)p.r(A)p.r(C)p.r(G)p.r(T)p.r(T)}|RNA2{r(C)p.r(G)p.[fl2r](U)p.r(A)p.r(C)p.r(U)p.r(C)p.r(C)p.r(U)p.r(U)p.[fl2r](C)p.r(A)p.r(G)p.r(G)p.r(U)p.r(C)p.r(G)p.r(A)p.r(U)p.r(T)p.r(T)}$$$RNA1{StrandType:ss}|RNA2{StrandType:as}$	target mRNA knockdown	46%
RNA1{r(G)p.r(G)p.r(A)p.r(C)p.r(A)p.r(U)p.r(U)p.r(C)p.r(A)p.r(G)p.r(A)p.r(A)p.r(C)p.r(A)p.r(A)p.r(G)p.r(A)p.r(A)p.r(A)p.[una](U)p.[una](U)}|RNA2{r(U)p.r(U)p.r(U)p.r(C)p.r(U)p.[una](U)p.r(G)p.r(U)p.r(U)p.r(C)p.r(U)p.r(G)p.r(A)p.r(A)p.r(U)p.r(G)p.r(U)p.r(C)p.r(C)p.[una](U)p.[una](U)}$$$RNA1{StrandType:ss}|RNA2{StrandType:as}$	target mRNA knockdown	57%
RNA1{r(A)p.r(U)p.r(C)p.m(U)p.r(A)p.r(C)p.r(C)p.r(C)p.r(A)p.r(G)p.r(C)p.r(U)p.r(C)p.r(U)p.r(C)p.r(C)p.r(C)p.r(U)p.r(U)p.r(T)p.r(T)}|RNA2{r(A)p.r(A)p.r(G)p.r(G)p.r(G)p.r(A)p.r(G)p.r(A)p.r(G)p.r(C)p.r(U)p.r(G)p.r(G)p.r(G)p.m(U)p.r(A)p.r(G)p.r(A)p.r(U)p.r(T)p.r(T)}$$$RNA1{StrandType:ss}|RNA2{StrandType:as}$	target mRNA knockdown	77%

---

- reported.conditions: siRNA
HELM strings list units from the 5' end as sugar, base in round brackets, then linkage (d deoxyribose, r ribose, m 2'-O-methyl, p phosphodiester). Strings are as the collection lists them, not checked against the first reports. ss, as = sense and antisense strand; [fl2r] = 2'-fluoro
// reported target mRNA knockdown for each item listed
quantity.measured: target mRNA knockdown (%)

substance	quantity.measured	result
RNA1{[fl2r](C)p.r(G)p.[fl2r](G)p.r(G)p.[fl2r](U)p.r(A)p.[fl2r](C)p.r(G)p.[fl2r](A)p.r(G)p.[fl2r](C)p.r(C)p.[fl2r](G)p.r(G)p.[fl2r](A)p.r(A)p.[fl2r](C)p.r(C)p.r(U)p.r(T)p.r(T)}|RNA2{r(A)p.r(G)p.r(G)p.r(U)p.r(U)p.r(C)p.r(C)p.r(G)p.r(G)p.r(C)p.r(U)p.r(C)p.r(G)p.r(U)p.r(A)p.r(C)p.r(C)p.r(C)p.r(G)p.r(T)p.r(T)}$$$RNA1{StrandType:ss}|RNA2{StrandType:as}$	target mRNA knockdown	61
RNA1{r(G)p.r(G)p.r(G)p.r(A)p.r(A)p.r(A)p.r(C)p.r(U)p.r(G)p.r(A)p.r(A)p.r(A)p.r(G)p.r(G)p.r(C)p.[fl2r](U)p.r(A)p.r(U)p.r(G)p.r(T)p.r(T)}|RNA2{r(C)p.r(A)p.r(U)p.r(A)p.r(G)p.r(C)p.r(C)p.r(U)p.r(U)p.r(U)p.r(C)p.r(A)p.r(G)p.r(U)p.r(U)p.r(U)p.r(C)p.r(C)p.r(C)p.r(T)p.r(T)}$$$RNA1{StrandType:ss}|RNA2{StrandType:as}$	target mRNA knockdown	50

---

- reported.conditions: siRNA
HELM strings list units from the 5' end as sugar, base in round brackets, then linkage (d deoxyribose, r ribose, m 2'-O-methyl, p phosphodiester). Strings are as the collection lists them, not checked against the first reports. ss, as = sense and antisense strand; [lna] = locked nucleic acid (LNA)
// reported target mRNA knockdown for each item listed
quantity.measured: target mRNA knockdown (%)

substance	result
RNA1{r(C)p.r(G)p.r(G)p.r(A)p.r(U)p.r(C)p.m(U)p.m(A)p.m(C)p.r(A)p.r(C)p.r(C)p.r(U)p.r(U)p.m(C)p.r(A)p.r(A)p.r(G)p.r(A)p.r(T)p.r(T)}|RNA2{r(U)p.r(C)p.r(U)p.m(U)p.r(G)p.r(A)p.r(A)p.r(G)p.r(G)p.m(U)p.r(G)p.m(U)p.r(A)p.r(G)p.r(A)p.r(U)p.r(C)p.r(C)p.r(G)p.r(T)p.r(T)}$$$RNA1{StrandType:ss}|RNA2{StrandType:as}$	40
RNA1{m(U)p.r(U)p.m(A)p.r(A)p.m(G)p.r(G)p.m(A)p.r(G)p.m(A)p.r(A)p.m(G)p.r(C)p.m(U)p.r(G)p.m(A)p.r(C)p.m(G)p.r(G)p.m(C)p.r(T)p.r(T)}|RNA2{r(G)p.r(C)p.r(C)p.r(G)p.r(U)p.r(C)p.r(A)p.r(G)p.r(C)p.r(U)p.r(U)p.r(C)p.r(U)p.r(C)p.r(C)p.r(U)p.r(U)p.r(A)p.r(A)p.r(T)p.r(T)}$$$RNA1{StrandType:ss}|RNA2{StrandType:as}$	24
RNA1{r(C)p.r(U)p.r(U)p.r(A)p.r(C)p.r(G)p.r(C)p.r(U)p.r(G)p.r(A)p.r(G)p.r(U)p.r(A)p.r(C)p.r(U)p.r(U)p.r(C)p.r(G)p.r(A)p.r(T)p.r(T)}|RNA2{r(U)p.r(C)p.r(G)p.r(A)p.r(A)p.r(G)p.r(U)p.r(A)p.r(C)p.r(U)p.r(C)p.r(A)p.r(G)p.r(C)p.r(G)p.r(U)p.[lna](A)p.r(A)p.r(G)p.r(T)p.r(T)}$$$RNA1{StrandType:ss}|RNA2{StrandType:as}$	93
RNA1{m(C)p.r(A)p.r(G)p.m(C)p.r(A)p.r(A)p.r(A)p.m(C)p.m(C)p.r(A)p.m(C)p.r(G)p.r(A)p.m(U)p.m(C)p.r(A)p.r(A)p.m(U)p.r(A)p.r(T)p.r(T)}|RNA2{m(U)p.r(A)p.m(U)p.m(U)p.r(G)p.r(A)p.m(U)p.m(C)p.r(G)p.m(U)p.r(G)p.r(G)p.m(U)p.m(U)p.m(U)p.r(G)p.m(C)p.m(U)p.r(G)p.r(T)p.r(T)}$$$RNA1{StrandType:ss}|RNA2{StrandType:as}$	5
RNA1{r(G)p.r(A)p.r(G)p.r(G)p.r(A)p.r(A)p.r(G)p.r(A)p.m(U)p.r(G)p.r(A)p.r(G)p.r(U)p.m(U)p.r(G)p.m(U)p.r(A)p.r(C)p.r(C)p.r(T)p.r(T)}|RNA2{r(G)p.r(G)p.r(U)p.r(A)p.m(C)p.r(A)p.r(A)p.r(C)p.r(U)p.m(C)p.r(A)p.r(U)p.r(C)p.r(U)p.r(U)p.r(C)p.r(C)p.r(U)p.r(C)p.r(T)p.r(T)}$$$RNA1{StrandType:ss}|RNA2{StrandType:as}$	76

---

- reported.conditions: siRNA
HELM strings list units from the 5' end as sugar, base in round brackets, then linkage (d deoxyribose, r ribose, m 2'-O-methyl, p phosphodiester). Strings are as the collection lists them, not checked against the first reports. ss, as = sense and antisense strand; [lna] = locked nucleic acid (LNA); [fl2r] = 2'-fluoro
quantity.measured: target mRNA knockdown

substance	quantity.measured	result
RNA1{r(A)p.r(G)p.r(A)p.r(A)p.r(G)p.r(G)p.r(A)p.r(C)p.m(U)p.r(A)p.r(C)p.m(U)p.r(A)p.r(A)p.r(C)p.r(C)p.r(U)p.r(C)p.r(C)p.r(T)p.r(T)}|RNA2{r(G)p.r(G)p.r(A)p.r(G)p.r(G)p.r(U)p.r(U)p.r(A)p.r(G)p.m(U)p.r(A)p.r(G)p.r(U)p.r(C)p.r(C)p.r(U)p.r(U)p.r(C)p.r(U)p.r(T)p.r(T)}$$$RNA1{StrandType:ss}|RNA2{StrandType:as}$	target mRNA knockdown	81%
RNA1{r(C)p.r(U)p.r(U)p.r(A)p.r(C)p.r(G)p.r(C)p.r(U)p.r(G)p.r(A)p.r(G)p.r(U)p.r(A)p.r(C)p.r(U)p.r(U)p.r(C)p.r(G)p.r(A)p.r(T)p.r(T)}|RNA2{r(U)p.r(C)p.r(G)p.r(A)p.r(A)p.r(G)p.r(U)p.r(A)p.r(C)p.r(U)p.r(C)p.r(A)p.r(G)p.r(C)p.r(G)p.r(U)p.r(A)p.r(A)p.r(G)p.[lna](T)p.[lna](T)}$$$RNA1{StrandType:ss}|RNA2{StrandType:as}$	target mRNA knockdown	93%
RNA1{r(C)p.r(G)p.r(A)p.r(C)p.[fl2r](G)p.r(A)p.r(U)p.r(U)p.r(C)p.r(U)p.r(U)p.r(C)p.[fl2r](U)p.r(A)p.r(C)p.r(U)p.r(C)p.r(A)p.r(A)p.r(T)p.r(T)}|RNA2{r(U)p.[fl2r](U)p.r(G)p.r(A)p.r(G)p.[fl2r](U)p.r(A)p.r(G)p.r(A)p.r(A)p.r(G)p.r(A)p.r(A)p.r(U)p.r(C)p.r(G)p.r(U)p.r(C)p.r(G)p.r(T)p.r(T)}$$$RNA1{StrandType:ss}|RNA2{StrandType:as}$	target mRNA knockdown	62%
